target: CPS1 (Homo sapiens); construct: The full length, human CPS1 gene was cloned into pFastBac HTA; His6 (from the pFastBac HTA vector); made in house; host or cells: SF21 insect cells (baculovirus, Bac-to-bac); test: Assay 2 - Transcreener ADP FP assay (ADP formation from CPS1); format: biochemical; settings: 10 nM CPS1, varying amounts of ATP, 60 min, fluorescence polarization
readout-type: IC50

Qu. Reported IC50, compound COc1ccc(C(=O)N2[C@H](C)CN(C(=O)c3cc(OC)ccc3F)C[C@@H]2C)c(F)c1 : ____
Ans. > 66.7 µM

====

Task for the reader: assign each of the following molecules its reported IC50.
target: CPS1 (Homo sapiens, UniProt P31327); construct: The full length, human CPS1 gene was cloned into pFastBac HTA; His6 (from the pFastBac HTA vector); made in house; host or cells: SF21 insect cells (baculovirus, Bac-to-bac); test: ADP-Glo endpoint assay measuring the ATPase activity of CPS1; assay type: biochemical; details: geometric mean of a minimum of two values; 50 nM CPS1, 10 μM ATP, 0.2 mM NAG, 60 min at room temperature; read-out: ADPGlo IC50
Sequence (P31327 39-1500): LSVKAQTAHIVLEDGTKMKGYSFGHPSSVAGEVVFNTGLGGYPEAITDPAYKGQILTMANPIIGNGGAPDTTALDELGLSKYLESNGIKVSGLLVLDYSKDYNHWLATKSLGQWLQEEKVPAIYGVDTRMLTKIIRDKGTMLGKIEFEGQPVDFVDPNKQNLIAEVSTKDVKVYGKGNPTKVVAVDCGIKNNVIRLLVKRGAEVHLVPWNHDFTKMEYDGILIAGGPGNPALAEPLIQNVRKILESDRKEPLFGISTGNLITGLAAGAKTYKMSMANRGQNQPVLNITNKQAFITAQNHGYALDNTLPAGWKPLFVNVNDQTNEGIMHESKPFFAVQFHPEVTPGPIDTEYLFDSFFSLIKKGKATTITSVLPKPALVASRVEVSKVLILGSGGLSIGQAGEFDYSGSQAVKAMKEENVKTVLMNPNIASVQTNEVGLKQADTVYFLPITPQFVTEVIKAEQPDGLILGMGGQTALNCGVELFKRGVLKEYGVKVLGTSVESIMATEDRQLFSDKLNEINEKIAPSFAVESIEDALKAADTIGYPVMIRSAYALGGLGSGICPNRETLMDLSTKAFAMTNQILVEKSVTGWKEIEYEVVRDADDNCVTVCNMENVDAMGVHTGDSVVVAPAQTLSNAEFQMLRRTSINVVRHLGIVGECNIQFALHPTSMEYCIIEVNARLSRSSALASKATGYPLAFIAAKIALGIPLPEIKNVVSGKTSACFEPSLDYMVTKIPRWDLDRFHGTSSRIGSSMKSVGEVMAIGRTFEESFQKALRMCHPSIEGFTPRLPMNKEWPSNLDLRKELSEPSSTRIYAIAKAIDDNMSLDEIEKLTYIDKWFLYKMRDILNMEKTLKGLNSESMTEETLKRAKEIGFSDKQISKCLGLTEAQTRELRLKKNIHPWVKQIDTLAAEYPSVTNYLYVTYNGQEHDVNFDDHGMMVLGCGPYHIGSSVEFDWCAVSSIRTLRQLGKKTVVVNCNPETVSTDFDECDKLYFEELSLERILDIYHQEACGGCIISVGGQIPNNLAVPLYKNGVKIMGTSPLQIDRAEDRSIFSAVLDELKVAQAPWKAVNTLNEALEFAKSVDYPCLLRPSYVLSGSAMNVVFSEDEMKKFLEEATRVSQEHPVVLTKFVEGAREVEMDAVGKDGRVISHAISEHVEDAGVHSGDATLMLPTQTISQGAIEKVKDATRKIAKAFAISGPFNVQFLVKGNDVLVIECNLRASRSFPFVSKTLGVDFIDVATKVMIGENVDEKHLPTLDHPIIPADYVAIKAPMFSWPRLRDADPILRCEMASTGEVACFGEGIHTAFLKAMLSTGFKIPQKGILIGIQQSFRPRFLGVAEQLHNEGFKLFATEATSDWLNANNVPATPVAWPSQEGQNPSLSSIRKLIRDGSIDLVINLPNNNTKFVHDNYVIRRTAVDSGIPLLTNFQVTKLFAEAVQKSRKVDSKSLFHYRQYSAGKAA
Write down the numeric answer in µM and omit the unit.

Qu. Reported IC50, molecule COc1ccc(C(=O)N2CCN(C(=O)c3ccc(OC)cc3F)[C@H](C)C2)c(F)c1 [Compound 46] : ____
Ans. 6.04

Qu. Query COc1ccc(OC)c2[nH]c(C(=O)N3[C@H](C)CN(C(=O)c4ccc5cc[nH]c5c4)C[C@H]3C)cc12 [Compound 52] next
Ans. 0.193

Qu. Query COc1ccc(C(=O)N2CCN(C(=O)c3ccc(OC)cc3F)[C@@H](C)C2)c(F)c1 [Compound 51] next
Ans. 2.78

Qu. Query COc1ccc(C(=O)N2C[C@@H](C)N(C(=O)c3ccc(OC)cc3F)[C@@H](C)C2)c(F)c1 [Compound 50] next
Ans. 6.98

====

Task for the reader: assign each of the following compounds its reported IC50.
Target: CPS1 (Homo sapiens)
Construct: The full length, human CPS1 gene was cloned into pFastBac HTA; His6 (from the pFastBac HTA vector); made in house; host or cells: SF21 insect cells (baculovirus, Bac-to-bac)
Test: ADP-Glo endpoint assay measuring the ATPase activity of CPS1
Assay type: biochemical
Conditions: geometric mean of a minimum of two values; 50 nM CPS1, 10 μM ATP, 0.2 mM NAG, 60 min at room temperature; read-out: ADPGlo IC50
Experimental: CPS1 was expressed and purified from SF21 insect cells. The full length, human CPS1 gene was cloned into pFastBac HTA and baculovirus was generated using the Bac-to-bac expression system from Invitrogen. […] CPS1 activity was measured and compounds profiled in an endpoint assay measuring the ATPase activity of CPS1 using the ADP-Glo kit from Promega. […] 3 μL of kinase detection reagent was then added and luminescent signal measured on an Envision plate reader after 30 min.
Write down the numeric answer in µM and omit the unit.

Qu. Reported IC50, compound COc1ccc(C(=O)N2C[C@@H](C)N(C(=O)c3cc(F)c(OC)cc3F)[C@H](C)C2)c(F)c1 : ____
Ans. 1.19

Qu. Query COc1ccc(C(=O)N2C[C@@H](C)N(C(=O)c3ccc4cc[nH]c4c3F)[C@H](C)C2)c(F)c1 next
Ans. 11.6

Qu. Query COc1ccc(C(=O)N2[C@H](C)CN(C(=O)c3ccc(OC)c(O)c3)C[C@H]2C)c(F)c1 next
Ans. 11.5

Qu. Query COc1ccc(C(=O)N2C[C@@H](C)N(C(=O)c3ccc(OC(F)(F)F)cc3F)[C@H](C)C2)c(F)c1 next
Ans. 1.19

Qu. Query COc1ccc(C(=O)N2CCN(C(=O)c3ccc(OC)cc3F)C(C)(C)C2)c(F)c1 next
Ans. 4.68

Qu. Query COc1ccc(C(=O)N2C[C@@H](C)N(C(=O)c3ccc(-c4ccn(C)n4)cc3)[C@H](C)C2)c(F)c1 next
Ans. 22.9

====

target: CPS1 (Homo sapiens, UniProt P31327); construct: The full length, human CPS1 gene was cloned into pFastBac HTA; His6 (from the pFastBac HTA vector); made in house; host or cells: SF21 insect cells (baculovirus, Bac-to-bac); test: ADP-Glo endpoint assay measuring the ATPase activity of CPS1; type: biochemical; settings: geometric mean of a minimum of two values; 50 nM CPS1, 10 μM ATP, 0.2 mM NAG, 60 min at room temperature; read-out: ADPGlo IC50
readout-type: IC50 (µM)
Write down the numeric answer in µM and omit the unit.

Qu. Fill in the recorded IC50 for this molecule, with CPS1 (Homo sapiens, UniProt P31327) as test system: COc1ccc(C(=O)N2[C@H](C)CN(C(=O)c3ccc4c(c3)N(C)CC4)C[C@H]2C)c(F)c1 [Compound 6]
Ans. 7.67

Qu. Query COc1ccc(C(=O)N2C[C@@H](C)N(C(=O)c3cccc(O)c3)[C@H](C)C2)c(F)c1 [Compound 85] next
Ans. 34.1

Qu. Query COc1ccc(C(=O)N2C[C@@H](C)N(C(=O)c3ccc(OCc4ccccc4)cc3F)[C@H](C)C2)c(F)c1 [Compound 24] next
Ans. 0.995

Qu. Query COc1ccc(C(=O)N2C[C@@H](C)N(C(=O)c3cc(OC)ccc3F)[C@H](C)C2)c(F)c1 [Compound 67] next
Ans. 5.15

Qu. Query COc1ccc(C(=O)N2CC(C)N(C(=O)c3ccc(OC)cc3F)CC2C)c(F)c1 (stereo not drawn) [Compound 71] next
Ans. 9.97

Qu. Query COc1ccc(C(=O)N2[C@H](C)CN(C(=O)c3ccc4cc(C)[nH]c4c3)C[C@H]2C)c(F)c1 [Compound 7] next
Ans. 0.171

Qu. Query COc1ccc(C(=O)N2[C@H](C)CN(C(=O)c3ccc4nc[nH]c4c3)C[C@H]2C)c(F)c1 [Compound 38] next
Ans. 4.91

Qu. Query COc1ccc(C(=O)N2[C@H](C)CN(C(=O)c3cc(Cl)c4cc[nH]c4c3)C[C@H]2C)c(F)c1 [Compound 17] next
Ans. 0.526

Qu. Query COc1ccc(C(=O)N2C[C@@H](C)N(C(=O)c3ccc(OC(F)F)cc3F)[C@H](C)C2)c(F)c1 [Compound 33] next
Ans. 2.54

Qu. Query COc1ccc(C(=O)N2[C@H](C)CN(C(=O)c3ccc4c(c3)CCCO4)C[C@H]2C)c(F)c1 [Compound 18] next
Ans. 5.87

Qu. Query COc1ccc(C(=O)N2C[C@@H](C)N(C(=O)c3cc4ccccc4[nH]3)[C@H](C)C2)c(F)c1 [Compound 57] next
Ans. 3.3

Qu. Query COc1ccc(C(=O)N2[C@H](C)CN(C(=O)c3ccc(OC(F)F)cc3F)C[C@H]2C)c(F)c1 [Compound 9] next
Ans. 0.19

====

Target: CPS1 (Homo sapiens)
Construct: The full length, human CPS1 gene was cloned into pFastBac HTA; His6 (from the pFastBac HTA vector); made in house; host or cells: SF21 insect cells (baculovirus, Bac-to-bac)
Assay: ADP-Glo endpoint assay measuring the ATPase activity of CPS1
Type: biochemical
Settings: geometric mean of a minimum of two values; 50 nM CPS1, 10 μM ATP, 0.2 mM NAG, 60 min at room temperature; read-out: ADPGlo IC50
Procedure: CPS1 was expressed and purified from SF21 insect cells. The full length, human CPS1 gene was cloned into pFastBac HTA and baculovirus was generated using the Bac-to-bac expression system from Invitrogen. […] CPS1 activity was measured and compounds profiled in an endpoint assay measuring the ATPase activity of CPS1 using the ADP-Glo kit from Promega. […] 3 μL of kinase detection reagent was then added and luminescent signal measured on an Envision plate reader after 30 min.
Task for the reader: assign each of the following compounds its reported IC50.

Qu. Reported IC50, compound COc1ccc(C(=O)N2C[C@@H](C)N(C(=O)c3ccc(S(C)(=O)=O)cc3F)[C@H](C)C2)c(F)c1 : ____
Ans. 16.7 µM

Qu. Query COc1ccc(OC)c2[nH]c(C(=O)N3[C@H](C)CN(C(=O)Cc4cc5ccccc5[nH]4)C[C@H]3C)cc12 next
Ans. 32.1 µM

Qu. Query COc1ccc(C(=O)N2C[C@@H](C)N(C(=O)c3ccc(OC)c(F)c3F)[C@H](C)C2)c(F)c1 next
Ans. 0.387 µM

Qu. Query COc1ccc(C(=O)N2C[C@H](C)N(C(=O)c3ccc(OC)cc3F)C[C@H]2C)c(F)c1 next
Ans. 0.714 µM

Qu. Query COc1ccc(C(=O)N2[C@H](C)CN(C(=O)c3c(F)cc(SC)cc3F)C[C@H]2C)c(F)c1 next
Ans. 0.552 µM

Qu. Query COc1ccc(C(=O)N2[C@H](C)CN(C(=O)c3cnc(N)s3)C[C@H]2C)c(F)c1 next
Ans. 6.44 µM

Qu. Query COc1ccc(C(=O)N2C[C@@H](C)N(C(=O)c3ccc(-c4cnco4)cc3)[C@H](C)C2)c(F)c1 next
Ans. 3.58 µM

Qu. Query COc1ccc(C(=O)N2C[C@H](C)N(C(=O)c3ccc(OC)cc3F)[C@@H](C)C2)c(F)c1 next
Ans. 6.56 µM

Qu. Query COc1ccc(C(=O)N2[C@H](C)CN(C(=O)c3c[nH]c4c(Cl)cccc34)C[C@H]2C)c(F)c1 next
Ans. 1.15 µM

Qu. Query COc1ccc(C(=O)N2[C@H](C)CN(C(=O)c3ccc(OC)cc3OC)C[C@H]2C)c(F)c1 next
Ans. > 66.7 µM

Qu. Query COc1ccc(C(=O)N2C[C@@H](C)N(C(=O)c3c(C)cc(OC)cc3F)[C@H](C)C2)c(F)c1 next
Ans. 0.909 µM

Qu. Query COc1ccc(C(=O)N2C[C@@H](C)N(C(=O)c3c(F)cc(SC)cc3F)[C@H](C)C2)c(F)c1 next
Ans. 0.255 µM

Qu. Query COc1ccc(C(=O)N2[C@H](C)CN(C(=O)c3ccc4cc[nH]c4n3)C[C@H]2C)c(F)c1 next
Ans. 3.28 µM

Qu. Query COc1ccc(C(=O)N2C[C@@H](C)N(C(=O)c3ccc(OC(C)C)cc3F)[C@H](C)C2)c(F)c1 next
Ans. 1.47 µM

Qu. Query COc1ccc(OC)c2[nH]c(C(=O)N3C[C@@H](C)N(C(=O)c4ccc5cc[nH]c5c4)[C@H](C)C3)cc12 next
Ans. 1.59 µM
